target: rat TAAR1 (Rattus norvegicus, UniProt Q923Y9); construct: expressed in transfected cells; host or cells: HEK293 (ATCC # CRL-1573), stably transfected with pIRESneo2 expression plasmid; test: TAAR1 radioligand binding with [3H]-rac-2-(1,2,3,4-tetrahydro-1-naphthyl)-2-imidazoline, membranes of stably transfected HEK293 cells; settings: second value of the cell, read-out: Ki (μM) mouse/rat: rat
Sequence (Q923Y9 whole entry): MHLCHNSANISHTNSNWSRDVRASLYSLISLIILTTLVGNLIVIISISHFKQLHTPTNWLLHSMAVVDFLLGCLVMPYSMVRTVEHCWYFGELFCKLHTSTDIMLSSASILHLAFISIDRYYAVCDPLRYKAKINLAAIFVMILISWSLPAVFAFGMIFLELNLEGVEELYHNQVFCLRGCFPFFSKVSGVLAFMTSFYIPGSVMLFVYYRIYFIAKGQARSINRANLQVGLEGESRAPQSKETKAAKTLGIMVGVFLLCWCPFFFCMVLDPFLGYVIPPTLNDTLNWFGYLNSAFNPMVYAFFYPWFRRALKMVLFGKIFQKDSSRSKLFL
Quick reference: Ki of the listed items.
Measurement Kind: Ki (µM)

INSERT INTO measurements (compound, measurement_kind, measured_number) VALUES
  ('NC1=N[C@@H](CCc2ccc(NC(=O)c3ccc4cnccc4n3)cc2)CO1', 'Ki', 0.0014),
  ('COc1cc(Cl)ccc1C(=O)Nc1ccc(CC[C@H]2COC(N)=N2)cc1', 'Ki', 0.0002),
  ('NC1=N[C@@H](CCc2ccc(NC(=O)Nc3ccc(Cl)nc3)cc2)CO1', 'Ki', 0.0004),
  ('NC1=N[C@@H](CCc2ccc(NC(=O)c3cnc(N4CCC(F)(F)CC4)cn3)cc2)CO1', 'Ki', 0.0027),
  ('NC1=N[C@@H](CCc2ccc(NC(=O)c3ccnc(Cl)c3)cc2)CO1', 'Ki', 0.0014),
  ('NC1=N[C@@H](CCc2ccc(NC(=O)C3CCC(F)(F)CC3)cc2)CO1', 'Ki', 0.0187),
  ('C#Cc1ccc(NC(=O)c2ccc(CC[C@H]3COC(N)=N3)cc2)nc1', 'Ki', 0.0002),
  ('NC1=N[C@@H](CCc2ccc(NC(=O)C3CCC(C(F)(F)F)CC3)cc2)CO1 (stereo partly drawn)', 'Ki', 0.0051),
  ('NC1=N[C@@H](CCc2ccc(NC(=O)c3ccc(C(F)(F)F)cc3)cc2)CO1', 'Ki', 0.0004),
  ('NC1=N[C@@H](CCc2ccc(NC(=O)c3ccc(-n4cccn4)nc3)cc2)CO1', 'Ki', 0.0015),
  ('CCOc1ccc(C(=O)Nc2ccc(CC[C@H]3COC(N)=N3)cc2)nc1', 'Ki', 0.001),
  ('Cc1cc(Cl)cc(C(=O)Nc2ccc(CC[C@H]3COC(N)=N3)cc2)n1', 'Ki', 0.0063),
  ('NC1=N[C@@H](CCc2ccc(NC(=O)c3cnc(C(F)(F)F)nc3C3CC3)cc2)CO1', 'Ki', 0.0035),
  ('NC1=N[C@@H](CCc2ccc(NC(=O)c3nc4ccccc4[nH]3)cc2)CO1', 'Ki', 0.0006),
  ('NC1=N[C@@H](CCc2ccc(NC(=O)c3cncc(Cl)n3)cc2)CO1', 'Ki', 0.0018),
  ('NC1=N[C@@H](CCc2ccc(NC(=O)Oc3ccc(F)cc3)cc2)CO1', 'Ki', 0.0006),
  ('NC1=N[C@@H](CCc2ccc(NC(=O)C3CC3)cc2)CO1', 'Ki', 0.0018),
  ('NC1=N[C@@H](CCc2ccc(NC(=O)c3ccc(C(F)(F)F)nc3)cc2)CO1', 'Ki', 0.003);

###

Quick reference: Ki of the listed items.
molecular target: rat TAAR1 (Rattus norvegicus, UniProt Q923Y9); construct: expressed in transfected cells; host or cells: HEK293 (ATCC # CRL-1573), stably transfected with pIRESneo2 expression plasmid; assay: TAAR1 radioligand binding with [3H]-rac-2-(1,2,3,4-tetrahydro-1-naphthyl)-2-imidazoline, membranes of stably transfected HEK293 cells; conditions: second value of the cell, read-out: Ki (μM) mouse/rat: rat
Measurement Kind: Ki (µM)

INSERT INTO results (structure_notation, measured_number) VALUES
  ('C#Cc1ccc(NC(=O)c2ccc(CC[C@H]3COC(N)=N3)cc2)cc1', 0.0001),
  ('NC1=N[C@@H](CCc2ccc(NC(=O)c3ccc(Cl)cc3)cc2)CO1', 0.0004),
  ('CC[C@@H](C[C@H]1COC(N)=N1)c1ccc(NC(=O)Nc2ccc(C(F)(F)F)cc2)cc1', 0.0023),
  ('NC1=N[C@@H](CCc2ccc(NC(=O)c3cncc(F)c3)cc2)CO1', 0.0018);

###

Molecular target: mouse TAAR1 (Mus musculus, UniProt Q923Y8)
Construct: expressed in transfected cells; host or cells: HEK293 (ATCC # CRL-1573), stably transfected with pIRESneo2 expression plasmid
Sequence (Q923Y8 whole entry): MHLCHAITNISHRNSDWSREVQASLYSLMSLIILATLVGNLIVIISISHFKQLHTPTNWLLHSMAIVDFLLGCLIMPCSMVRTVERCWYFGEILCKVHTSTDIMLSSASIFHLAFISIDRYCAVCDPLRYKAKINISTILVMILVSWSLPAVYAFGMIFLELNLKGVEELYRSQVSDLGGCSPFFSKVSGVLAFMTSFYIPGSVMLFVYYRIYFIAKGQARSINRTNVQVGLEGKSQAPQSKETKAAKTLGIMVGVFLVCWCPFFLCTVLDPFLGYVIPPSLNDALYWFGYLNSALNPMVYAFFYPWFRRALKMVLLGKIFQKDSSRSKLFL
Assay: TAAR1 radioligand binding with [3H]-rac-2-(1,2,3,4-tetrahydro-1-naphthyl)-2-imidazoline, membranes of stably transfected HEK293 cells
Conditions: first value of the cell, read-out: Ki (μM) mouse/rat: mouse
Procedure: For the construction of expression plasmids the coding sequences of human, rat and mouse TAAR 1 were amplified from genomic DNA essentially as described by Lindemann et al.. […] Cells at confluence were rinsed with ice-cold phosphate buffered saline without Ca^2+ and Mg^2+ containing 10 mM EDTA and pelleted by centrifugation at 1000 rpm for 5 min at 4° C. […] Protein concentration was determined by the method of Pierce (Rockford, Ill.). […]
Measurement Kind: Ki (µM)

INSERT INTO measurements (structure_notation, value_units, measured_number) VALUES
  ('NC1=N[C@@H](CCc2ccc(NC(=O)c3ncc(F)cc3F)cc2)CO1', 'µM', 0.0057),
  ('NC1=N[C@@H](CCc2ccc(NC(=O)c3cnc(Cl)c(Cl)c3)cc2)CO1', 'µM', 0.0006),
  ('CCOc1ccc(CC(=O)Nc2ccc(CC[C@H]3COC(N)=N3)cc2)cc1', 'µM', 0.0026),
  ('NC1=N[C@@H](CCc2ccc(NC(=O)Oc3cccc(C(F)(F)F)c3)cc2)CO1', 'µM', 0.0097);

###

Quick reference: Ki of the listed items.
molecular target: mouse TAAR1 (Mus musculus); construct: expressed in transfected cells; host or cells: HEK293 (ATCC # CRL-1573), stably transfected with pIRESneo2 expression plasmid; test: TAAR1 radioligand binding with [3H]-rac-2-(1,2,3,4-tetrahydro-1-naphthyl)-2-imidazoline, membranes of stably transfected HEK293 cells; conditions: first value of the cell, read-out: Ki (μM) mouse/rat: mouse
Measurement Kind: Ki (µM)

INSERT INTO results (structure_notation, measured_number) VALUES
  ('Cc1ocnc1C(=O)Nc1ccc(CC[C@H]2COC(N)=N2)cc1', 0.0042),
  ('COc1cc(C(=O)Nc2ccc(CC[C@H]3COC(N)=N3)cc2)nc(Cl)n1', 0.0009),
  ('NC1=N[C@@H](CCc2ccc(NC(=O)c3ccc(F)nc3)cc2)CO1', 0.0032),
  ('CC(C)(C(=O)Nc1ccc(CC[C@H]2COC(N)=N2)cc1)c1ccc(Cl)cc1', 0.0008),
  ('N#Cc1ccc(NC(=O)c2ccc(CC[C@H]3COC(N)=N3)cc2)cc1', 0.0044);

###

molecular target: rat TAAR1 (Rattus norvegicus, UniProt Q923Y9); construct: expressed in transfected cells; host or cells: HEK293 (ATCC # CRL-1573), stably transfected with pIRESneo2 expression plasmid; assay: TAAR1 radioligand binding with [3H]-rac-2-(1,2,3,4-tetrahydro-1-naphthyl)-2-imidazoline, membranes of stably transfected HEK293 cells; details: second value of the cell, read-out: Ki (μM) mouse/rat: rat
Label true (1) when Ki < 0.001 µM; otherwise false (0).

INSERT INTO measurements (molecule, experimental_target, class_assignment) VALUES
  ('COc1cnc(C(=O)Nc2ccc(CC[C@H]3COC(N)=N3)cc2)cn1 [Example 127]', 'rat TAAR1 (Rattus norvegicus, UniProt Q923Y9)', 'false (0)'),
  ('Cc1cc(C(=O)Nc2ccc(CC[C@H]3COC(N)=N3)cc2)ncc1Cl [Example 155]', 'rat TAAR1 (Rattus norvegicus, UniProt Q923Y9)', 'true (1)'),
  ('CCOc1cnc(C(=O)Nc2ccc(CC[C@H]3COC(N)=N3)cc2)cn1 [Example 161]', 'rat TAAR1 (Rattus norvegicus, UniProt Q923Y9)', 'false (0)'),
  ('NC1=N[C@@H](CCc2ccc(NC(=O)c3cc(Cl)ccn3)cc2)CO1 [Example 90]', 'rat TAAR1 (Rattus norvegicus, UniProt Q923Y9)', 'true (1)'),
  ('NC1=N[C@@H](CCc2ccc(NC(=O)c3cccnc3F)cc2)CO1 [Example 99]', 'rat TAAR1 (Rattus norvegicus, UniProt Q923Y9)', 'false (0)'),
  ('NC1=N[C@@H](CCc2ccc(NC(=O)c3ccc(Br)nc3)cc2)CO1 [Example 106]', 'rat TAAR1 (Rattus norvegicus, UniProt Q923Y9)', 'true (1)'),
  ('NC1=N[C@@H](CCc2ccc(NC(=O)c3ncc(F)cc3F)cc2)CO1 [Example 87]', 'rat TAAR1 (Rattus norvegicus, UniProt Q923Y9)', 'false (0)'),
  ('NC1=N[C@@H](CCc2ccc(NC(=O)c3cc(Cl)nc(Cl)c3)cc2)CO1 [Example 175]', 'rat TAAR1 (Rattus norvegicus, UniProt Q923Y9)', 'true (1)'),
  ('CCc1cnc(C(=O)Nc2ccc(CC[C@@H]3N=C(N)O[C@H]3C)cc2)cn1 [Example 227]', 'rat TAAR1 (Rattus norvegicus, UniProt Q923Y9)', 'false (0)'),
  ('CCCc1ccc(C(=O)Nc2ccc(CC[C@H]3COC(N)=N3)cc2)cc1 [Example 61]', 'rat TAAR1 (Rattus norvegicus, UniProt Q923Y9)', 'true (1)'),
  ('COc1ccc(C(=O)Nc2ccc(CC[C@H]3COC(N)=N3)cc2)nc1Cl [Example 168]', 'rat TAAR1 (Rattus norvegicus, UniProt Q923Y9)', 'true (1)'),
  ('NC1=N[C@@H](CCc2ccc(NC(=O)c3ccc(Br)cn3)cc2)CO1 [Example 92]', 'rat TAAR1 (Rattus norvegicus, UniProt Q923Y9)', 'true (1)'),
  ('COc1ccc(C(=O)Nc2ccc(CC[C@H]3COC(N)=N3)cc2)cc1 [Example 71]', 'rat TAAR1 (Rattus norvegicus, UniProt Q923Y9)', 'true (1)'),
  ('NC1=N[C@@H](CCc2ccc(NC(=O)C3CCCC3)cc2)CO1 [Example 43]', 'rat TAAR1 (Rattus norvegicus, UniProt Q923Y9)', 'false (0)'),
  ('NC1=N[C@@H](C[C@@H](Oc2ccc(NC(=O)c3ccc(Cl)cc3)cc2)C(F)(F)F)CO1 [Example 150]', 'rat TAAR1 (Rattus norvegicus, UniProt Q923Y9)', 'true (1)'),
  ('CC(C)(C)c1cc(C(=O)Nc2ccc(CC[C@H]3COC(N)=N3)cc2)ccn1 [Example 197]', 'rat TAAR1 (Rattus norvegicus, UniProt Q923Y9)', 'false (0)'),
  ('CCc1ccc(C(=O)Nc2ccc(CC[C@H]3COC(N)=N3)cc2)nc1 [Example 178]', 'rat TAAR1 (Rattus norvegicus, UniProt Q923Y9)', 'true (1)'),
  ('NC1=N[C@@H](CCc2ccc(NC(=O)c3nc(Cl)ccc3F)cc2)CO1 [Example 89]', 'rat TAAR1 (Rattus norvegicus, UniProt Q923Y9)', 'true (1)'),
  ('NC1=N[C@@H](CCc2ccc(NC(=O)Nc3ccc(C(F)(F)F)cc3)cc2)CO1 [Example 15]', 'rat TAAR1 (Rattus norvegicus, UniProt Q923Y9)', 'true (1)'),
  ('CC1(C(=O)Nc2ccc(CC[C@H]3COC(N)=N3)cc2)CC1 [Example 41]', 'rat TAAR1 (Rattus norvegicus, UniProt Q923Y9)', 'false (0)'),
  ('NC1=NC(c2ccc(NC(=O)Nc3ccc(Cl)cc3)cc2)CO1 (racemic) [Example 1]', 'rat TAAR1 (Rattus norvegicus, UniProt Q923Y9)', 'true (1)'),
  ('CC(C)c1ocnc1C(=O)Nc1ccc(CC[C@H]2COC(N)=N2)cc1 [Example 215]', 'rat TAAR1 (Rattus norvegicus, UniProt Q923Y9)', 'false (0)'),
  ('NC1=N[C@@H](CCc2ccc(NC(=O)c3ccc(C(F)(F)F)cn3)cc2)CO1 [Example 54]', 'rat TAAR1 (Rattus norvegicus, UniProt Q923Y9)', 'false (0)'),
  ('COCc1ccc(C(=O)Nc2ccc(CC[C@H]3COC(N)=N3)cc2)cc1 [Example 63]', 'rat TAAR1 (Rattus norvegicus, UniProt Q923Y9)', 'false (0)'),
  ('NC1=N[C@@H](CCc2ccc(NC(=O)c3ncc(Cl)cn3)cc2)CO1 [Example 34]', 'rat TAAR1 (Rattus norvegicus, UniProt Q923Y9)', 'false (0)'),
  ('NC1=N[C@@H](CCc2ccc(NC(=O)CCC3CC3)cc2)CO1 [Example 170]', 'rat TAAR1 (Rattus norvegicus, UniProt Q923Y9)', 'false (0)'),
  ('NC1=N[C@@H](CCc2ccc(N3CCN(c4ccc(F)cc4)C3=O)cc2)CO1 [Example 56]', 'rat TAAR1 (Rattus norvegicus, UniProt Q923Y9)', 'true (1)'),
  ('CC(C(=O)Nc1ccc(CC[C@H]2COC(N)=N2)cc1)c1cccc(OC(F)(F)F)c1 (some centres unmarked) [Example 82]', 'rat TAAR1 (Rattus norvegicus, UniProt Q923Y9)', 'false (0)'),
  ('NC1=N[C@@H](CCc2ccc(C(=O)Nc3ccc(Cl)cn3)cc2)CO1 [Example 131]', 'rat TAAR1 (Rattus norvegicus, UniProt Q923Y9)', 'true (1)'),
  ('NC1=N[C@@H](CCc2ccc(NC(=O)c3cnc(Cl)cn3)cc2)CO1 [Example 126]', 'rat TAAR1 (Rattus norvegicus, UniProt Q923Y9)', 'false (0)'),
  ('NC1=N[C@@H](CCc2ccc(NC(=O)c3nccc4ccccc34)cc2)CO1 [Example 93]', 'rat TAAR1 (Rattus norvegicus, UniProt Q923Y9)', 'true (1)'),
  ('COc1ccc(C(=O)Nc2ccc(CC[C@H]3COC(N)=N3)cc2)nc1 [Example 117]', 'rat TAAR1 (Rattus norvegicus, UniProt Q923Y9)', 'true (1)');

Source: patent US8354441B2
